# TEST TARGET: UniProt Q99873
# TEST NAME: PRMT1 RKO Cellular Target Engagement Assay (In-Cell Western, asymmetric di-methyl arginine)
# Type: cell-based
# CONDITION INFO: RKO cells, 48 hr compound incubation; read-out: RKO IC50 (PRMT-1 Target Engagement)
METRIC NAME: log10 of IC50 (log10 of the value in nM)
Parameter value (number): base-10 log of IC50 in nM.

COMPOUND	TEST TARGET	log10 of IC50
CNCCN(C)Cc1nn2c(c1C1CCC(COC)(COC)CC1)CN(C(=O)C13CC(OC)(C1)C3)CC2	UniProt Q99873	2.62
CNCCN(C)Cc1nn2c(c1C1CCC(COC)(COC)CC1)CN(C(=O)C1CC(C(F)F)C1)CC2 (centres unmarked)	UniProt Q99873	2.98
CNCCN(C)Cc1nn2c(c1C1CCC(COC)(COC)CC1)CN(C(=O)C1CC(C)(O)C1)CC2 (centres unmarked)	UniProt Q99873	3.75
CNCCN(C)Cc1nn2c(c1C1CCC(COC)(COC)CC1)CN(C(=O)C(C)(C)C)CC2	UniProt Q99873	2.96

# log10 of IC50 of CNCCN(C)Cc1nn2c(c1C1CCC(COC)(COC)CC1)CN(C(=O)C(C)(C)F)CC2 = 2.25

# log10 of IC50 of CNCCN(C)Cc1nn2c(c1C1CCC(COC)(COC)CC1)CN(C(C)=O)CC2 = 3.05

# log10 of IC50 of CCC(C)C(=O)N1CCn2nc(CN(C)CCNC)c(C3CCC(COC)(COC)CC3)c2C1 (centres unmarked) = 2.73

# log10 of IC50 of COCC1(COC)CCC(c2c(CN(C)CCN)nn3c2CN(C(=O)C(C)(C)C)CC3)CC1 = 2.49

###

# TEST TARGET: PRMT1 (Homo sapiens, UniProt Q99873)
# Sequence (Q99873 whole entry): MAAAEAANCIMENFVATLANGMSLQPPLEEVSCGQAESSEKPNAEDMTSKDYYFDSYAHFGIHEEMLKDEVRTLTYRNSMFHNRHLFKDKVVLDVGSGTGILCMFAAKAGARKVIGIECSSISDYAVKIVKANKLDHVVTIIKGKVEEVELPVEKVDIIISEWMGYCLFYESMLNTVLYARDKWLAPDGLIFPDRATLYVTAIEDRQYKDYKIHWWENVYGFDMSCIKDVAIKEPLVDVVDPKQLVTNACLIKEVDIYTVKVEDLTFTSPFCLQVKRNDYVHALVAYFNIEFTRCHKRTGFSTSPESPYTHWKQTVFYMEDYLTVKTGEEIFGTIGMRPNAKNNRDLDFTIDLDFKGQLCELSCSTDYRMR
# TEST NAME: PRMT1 Enzymatic Assay (LANCE TR-FRET, methylation of histone H4 at Arg3)
# Assay type: biochemical
# Set-up: purchased SignalChem P365-380G
# CONDITION INFO: PRMT1 1.5 nM, SAM 1 μM, biotinylated histone H4 (1-21) 25 nM; read-out: PRMT-1 IC50
METRIC NAME: pIC50
Would you please state pIC50, meaning minus log10 of the concentration in mol/L, as a bare number?

Below, 3 compounds whose answers are already recorded.
COMPOUND	METRIC NAME	RECORDED RESULT
CNCCN(C)Cc1nn2c(c1C1CCC(COC)(COC)CC1)CN(C(=O)C(C)(C)COC)CC2	pIC50	6.99
COCC1(COC)CCC(c2c(CN(C)CCN)nn3c2CN(C(=O)C24CC(C2)C4)CC3)CC1	pIC50	7.77
CNCCN(C)Cc1nn2c(c1C1CCC(COC)(COC)CC1)CN(C(=O)C1CC(OC)C1)CC2 (stereo not shown)	pIC50	7.19

Consider the additional compound presented here.
# pIC50 of CNCCN(C)Cc1nn2c(c1C1CCC(COC)(COC)CC1)CN(C(=O)C13CC(C)(C1)C3)CC2 = 7.36

###

IC50 reference
# TEST TARGET: PRMT1 (Homo sapiens, UniProt Q99873)
# TEST NAME: PRMT1 RKO Cellular Target Engagement Assay (In-Cell Western, asymmetric di-methyl arginine)
# Assay type: cell-based
# CONDITION INFO: RKO cells, 48 hr compound incubation; read-out: RKO IC50 (PRMT-1 Target Engagement)
# Method: RKO cells were routinely maintained in EMEM media (ATCC, Catalog #30-2003) supplemented with 10% fetal bovine serum (Sigma, Catalog #F2442) using a humidified incubator (37° C., 5% CO2, and ambient O2). […] The primary antibody was then removed, and the plate was washed three times with 1× PBST. […] The IRDye secondary antibody signal (800 channel) and the CellTag signal (700 channel) were measured using a Licor Odyssey Imager, and the 800 channel signal was then normalized to the 700 channel signal. […]
Answer format: number, then unit.

Below, 3 compounds whose answers are already recorded.
COMPOUND	IC50
CNCCN(C)Cc1nn2c(c1C1CCC(COC)(COC)CC1)CN(C(=O)C1CCCO1)CC2 (stereo not drawn) [Example 32]	293 nM
CNCCN(C)Cc1nn2c(c1C1CCC(COC)(COC)CC1)CN(C(=O)C1(C)CCOC1)CC2 (stereo not drawn) [Example 76]	363 nM
CNCCN(C)Cc1nn2c(c1C1CCC(COC)(COC)CC1)CN(C(=O)C1COC1)CC2 [Example 9]	1110 nM

Given the compound CNCCN(C)Cc1nn2c(c1C1CCC(COC)(COC)CC1)CN(C(=O)C(C)COC)CC2 (stereo not drawn) [Example 72] and test system PRMT1 (Homo sapiens, UniProt Q99873), the measured IC50 is 315 nM

Given the compound CCOC12CC(C(=O)N3CCn4nc(CN(C)CCNC)c(C5CCC(COC)(COC)CC5)c4C3)(C1)C2 [Example 26] and test system PRMT1 (Homo sapiens, UniProt Q99873), the measured IC50 is 2400 nM

Given the compound CNCCN(C)Cc1nn2c(c1C1CCC(COC)(COC)CC1)CN(C(=O)CC(F)(F)F)CC2 [Example 7] and test system PRMT1 (Homo sapiens, UniProt Q99873), the measured IC50 is 1620 nM
